- Subject of test: human GCG receptor (human, UniProt P47871 26-477)
- Sequence (P47871 26-477): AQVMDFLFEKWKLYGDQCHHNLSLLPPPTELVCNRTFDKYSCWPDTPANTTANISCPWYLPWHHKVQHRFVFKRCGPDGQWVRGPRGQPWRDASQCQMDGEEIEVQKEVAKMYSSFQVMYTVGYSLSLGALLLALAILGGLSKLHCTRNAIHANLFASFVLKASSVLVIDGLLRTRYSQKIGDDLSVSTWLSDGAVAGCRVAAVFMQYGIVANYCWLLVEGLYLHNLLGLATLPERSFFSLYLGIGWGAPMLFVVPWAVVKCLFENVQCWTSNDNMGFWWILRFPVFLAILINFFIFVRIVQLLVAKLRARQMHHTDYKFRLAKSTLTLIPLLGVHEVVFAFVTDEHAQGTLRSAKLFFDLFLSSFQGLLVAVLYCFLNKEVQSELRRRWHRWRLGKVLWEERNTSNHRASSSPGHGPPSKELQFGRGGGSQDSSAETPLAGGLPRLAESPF
- Method notes: cell-based or functional assay
Bridge positions count the residues as written; N and C are the ends. Square brackets hold non-standard residues; d marks the D form. Ends that are not written are not given here. * marks the point of attachment. Acetyl(2-(4-imidazolyl)) = O=C(Cc1c[nH]cn1)*; Aib = CC(C)(N)C(=O)O
Threshold 5%. In vitro activity (%) compared with native peptide, vs Glucagon below it: yes. In vitro activity (%) compared with native peptide, vs Glucagon at it or above: no.

Prompt: Consider the binder [Acetyl(2-(4-imidazolyl))][Aib]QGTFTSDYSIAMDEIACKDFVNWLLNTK (bridge 16-20; not fully specified) [triple agonist of SEQ ID NO: 61] . Is its In vitro activity (%) compared with native peptide, vs Glucagon strictly less than 5%?
Response: yes

Prompt: Consider the binder [Acetyl(2-(4-imidazolyl))][Aib]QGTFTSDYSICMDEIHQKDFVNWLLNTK (bridge 16-20) [triple agonist of SEQ ID NO: 49] . Is its In vitro activity (%) compared with native peptide, vs Glucagon strictly less than 5%?
Response: yes

Prompt: Consider the binder H[Aib]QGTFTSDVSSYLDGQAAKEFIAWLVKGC [triple agonist of SEQ ID NO: 1] . Is its In vitro activity (%) compared with native peptide, vs Glucagon strictly less than 5%?
Response: yes

Prompt: Consider the binder H[Aib]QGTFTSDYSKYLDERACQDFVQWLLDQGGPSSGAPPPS (not fully specified) [triple agonist of SEQ ID NO: 27] . Is its In vitro activity (%) compared with native peptide, vs Glucagon strictly less than 5%?
Response: yes

Prompt: Consider the binder [Acetyl(2-(4-imidazolyl))]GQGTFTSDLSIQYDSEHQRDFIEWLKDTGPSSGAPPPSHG (not fully specified) [triple agonist of SEQ ID NO: 19] . Is its In vitro activity (%) compared with native peptide, vs Glucagon strictly less than 5%?
Response: yes

Prompt: Consider the binder {Acetyl(2-(4-imidazolyl))}-[Aib]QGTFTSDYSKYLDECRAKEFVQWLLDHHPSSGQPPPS (bridge 15-19) [triple agonist of SEQ ID NO: 73] . Is its In vitro activity (%) compared with native peptide, vs Glucagon strictly less than 5%?
Response: no

Prompt: Consider the binder Y[Aib]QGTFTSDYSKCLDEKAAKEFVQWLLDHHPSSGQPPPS (bridge 16-20) [triple agonist of SEQ ID NO: 68] . Is its In vitro activity (%) compared with native peptide, vs Glucagon strictly less than 5%?
Response: no

Prompt: Consider the binder Y[Aib]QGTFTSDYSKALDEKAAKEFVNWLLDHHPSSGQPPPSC (bridge 16-20) [triple agonist of SEQ ID NO: 98] . Is its In vitro activity (%) compared with native peptide, vs Glucagon strictly less than 5%?
Response: no

Prompt: Consider the binder Y[Aib]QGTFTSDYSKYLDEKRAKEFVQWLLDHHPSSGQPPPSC (bridge 16-20) [triple agonist of SEQ ID NO: 42] . Is its In vitro activity (%) compared with native peptide, vs Glucagon strictly less than 5%?
Response: no

Prompt: Consider the binder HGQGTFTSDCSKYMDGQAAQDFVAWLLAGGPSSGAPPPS [triple agonist of SEQ ID NO: 45] . Is its In vitro activity (%) compared with native peptide, vs Glucagon strictly less than 5%?
Response: yes

Prompt: Consider the binder H[Aib]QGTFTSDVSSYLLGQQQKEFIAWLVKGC [triple agonist of SEQ ID NO: 4] . Is its In vitro activity (%) compared with native peptide, vs Glucagon strictly less than 5%?
Response: yes

Prompt: Consider the binder {Acetyl(2-(4-imidazolyl))}-[Aib]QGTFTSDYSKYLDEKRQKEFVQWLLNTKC (bridge 15-19; numbers in words are those of the source; also: ring between positions 16 and 20, type not given here) [triple agonist of SEQ ID NO: 88] . Is its In vitro activity (%) compared with native peptide, vs Glucagon strictly less than 5%?
Response: yes

Prompt: Consider the binder H[Aib]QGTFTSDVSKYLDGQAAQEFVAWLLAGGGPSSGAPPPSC (not fully specified) [triple agonist of SEQ ID NO: 10] . Is its In vitro activity (%) compared with native peptide, vs Glucagon strictly less than 5%?
Response: yes

Prompt: Consider the binder [Acetyl(2-(4-imidazolyl))][Aib]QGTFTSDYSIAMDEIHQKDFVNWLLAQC (bridge 16-20; not fully specified) [triple agonist of SEQ ID NO: 85] . Is its In vitro activity (%) compared with native peptide, vs Glucagon strictly less than 5%?
Response: yes

Prompt: Consider the binder H[Aib]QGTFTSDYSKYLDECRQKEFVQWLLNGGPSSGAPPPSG (bridge 16-20) [triple agonist of SEQ ID NO: 37] . Is its In vitro activity (%) compared with native peptide, vs Glucagon strictly less than 5%?
Response: no

Prompt: Consider the binder [Acetyl(2-(4-imidazolyl))]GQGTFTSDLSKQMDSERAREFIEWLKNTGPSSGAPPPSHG (not fully specified) [triple agonist of SEQ ID NO: 18] . Is its In vitro activity (%) compared with native peptide, vs Glucagon strictly less than 5%?
Response: yes

Prompt: Consider the binder [Acetyl(2-(4-imidazolyl))]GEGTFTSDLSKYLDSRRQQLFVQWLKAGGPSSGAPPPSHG (not fully specified) [triple agonist of SEQ ID NO: 11] . Is its In vitro activity (%) compared with native peptide, vs Glucagon strictly less than 5%?
Response: yes

Prompt: Consider the binder H[Aib]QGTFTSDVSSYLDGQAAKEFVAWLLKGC [triple agonist of SEQ ID NO: 6] . Is its In vitro activity (%) compared with native peptide, vs Glucagon strictly less than 5%?
Response: yes

Prompt: Consider the binder Y[Aib]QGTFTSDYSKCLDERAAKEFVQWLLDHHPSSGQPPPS (bridge 16-20) [triple agonist of SEQ ID NO: 69] . Is its In vitro activity (%) compared with native peptide, vs Glucagon strictly less than 5%?
Response: no

Prompt: Consider the binder H[Aib]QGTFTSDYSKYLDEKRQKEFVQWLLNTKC (bridge 16-20) [triple agonist of SEQ ID NO: 58] . Is its In vitro activity (%) compared with native peptide, vs Glucagon strictly less than 5%?
Response: yes
